assay-details: qHTS Primary assay for Inhibitors of Plasmodium falciparum Dd2 growth in vitro; further: nearly all actives have a fitted effect of over 65% in size; further: potency means the concentration at half of the fitted maximal effect
study-conditions: P. falciparum Dd2 growth, SYBR Green, 72 h; series mostly up to 28.9 µM
Hit rate of the full screen: of about 120,000 compounds, about 5,300 (4.4%) were called active. About 22% were inconclusive and are not listed. Many of the other results were omitted from the sample, so actives are more common in it than they were.
experimental-readout: Potency

Consider the reported Potency for these compounds:
Measured Potency, CCn1ncc(N2CCC(NC(=O)c3ccccc3OC)CC2)cc1=O : inactive

Measured Potency, CC(C)CNC(=O)N1C[C@@H](Oc2cccnc2)C[C@H]1C(=O)N1CCOCC1 : inactive

Measured Potency, CN(Cc1ccc(-c2ccccc2)cc1)C(=O)c1ccccc1F : inactive

Measured Potency, CC(C)c1nccn1CCCNc1nc(-c2ccncc2)nc2c1cnn2C : 12.6 µM (active)

Further cases:
Measured Potency, O=C(N[C@@H]1CN[C@H](CO)C1)c1ccncc1 : inactive

Measured Potency, Cc1ccccc1-c1ccc(C(=O)NCCCn2ccnc2C(C)C)cn1 : inactive

Measured Potency, COc1ccccc1N1CCN(S(=O)(=O)CCNC(=O)COc2ccc(F)cc2)CC1 : inactive

Measured Potency, CC(C)Cn1c(-c2ccc(S(=O)(=O)N3CCOCC3)cc2)csc1=Nc1cc(Cl)ccc1Cl : 10 µM (active)

Measured Potency, CC(Cn1cncn1)Nc1nc(-c2ccncc2)nc2c1cnn2C (stereo unspecified) : inactive

Measured Potency, O=C(NC1CC(=O)N(CCc2cccc(Cl)c2)C1)c1ccsc1 (stereo unspecified) : inactive

Measured Potency, O=C(CN1C(=O)COc2ccc(S(=O)(=O)N3CCOCC3)cc21)N1CCN(c2cccc(Cl)c2)CC1 : inactive

###

assay-details: qHTS Primary assay for Inhibitors of Plasmodium falciparum Dd2 growth in vitro; further: nearly all actives have a fitted effect of over 65% in size; further: potency means the concentration at half of the fitted maximal effect
study-conditions: P. falciparum Dd2 growth, SYBR Green, 72 h; series mostly up to 28.9 µM
Out of some 120,000 compounds screened, about 5,300 (4.4%) were called active. About 22% were inconclusive and are not listed. The sample as a whole holds a higher share of actives than the screen did.
experimental-readout: Potency

Consider the reported Potency for these compounds:
Measured Potency, COc1ccc(C(=O)N2CCOC3(CCN(C(=O)c4c(C)noc4C)CC3)C2)cc1 : inactive

Measured Potency, COC(=O)c1scc(-c2ccc(C)cc2)c1S(=O)(=O)Nc1cc(Cl)c(OC)cc1OC : 8.91 µM (active)

Measured Potency, CCC(CC)NC(=O)c1ccc(-c2nnc3ccc(NC(=O)C4CCC4)cn23)cc1 : 2.51 µM (active)

Measured Potency, COc1cc(C(=O)Nc2ccc(OCc3cc(=O)n4cc(C)sc4n3)cc2)cc(OC)c1OC : inactive

Further cases:
Measured Potency, O=C(Nc1ccc(C2(C(=O)N3CCCCCC3)CCC2)cc1)C1CC1 : inactive

Measured Potency, COc1ccccc1C(=O)N1CCCC(n2cc(-c3nc(-c4ccccc4)no3)nn2)C1 (stereo unspecified) : inactive

Measured Potency, CCOc1ccc(CCNC(=O)c2ccc3c(c2)sc2nc(-c4ccc(F)cc4)cn23)cc1OCC : 5.62 µM (active)

Measured Potency, CCOC(=O)c1ccccc1NC(=O)c1sc2nc(-c3ccc(F)cc3)cn2c1C : inactive

Measured Potency, COc1ccc(-c2cn3c(n2)sc2cc(C(=O)Nc4ccc(F)cc4)ccc23)cc1 : inactive

Measured Potency, CCOC(=O)N1CCc2c(sc3c2C(=O)NC(c2ccccc2F)N3)C1 (stereo unspecified) : inactive

Measured Potency, CC(C)c1ccc(C2CC(=O)N3CN(C4CCCCC4)CSC3=C2C#N)cc1 (stereo unspecified) : 11.2 µM (active)

Measured Potency, COC(=O)c1scc(-c2ccccc2)c1S(=O)(=O)Nc1ccccc1 : inactive

Measured Potency, N#Cc1ccc(S(=O)(=O)NC2CCc3nn(CC4CC4)c(=O)n3CC2)cc1 (stereo unspecified) : inactive
